target: UniProt:Q9NWZ3; assay: IRAK-4 ELISA, PBMC degradation; type: cell-based; design: endogenous in cells; host or cells: PBMC; details: treated overnight
measurement.name: DC50

Example results:
CN(C1CN(c2ccc3c(c2)C(=O)N(C2CCC(=O)NC2=O)C3=O)C1)[C@H]1CC[C@H](n2cc3cc(NC(=O)c4cnn5cccnc45)c(OCC4CC4)cc3n2)CC1 (stereo partly drawn)    < 1 nM
O=C1CCC(N2C(=O)c3ccc(N4CC(F)(CN5CCC(n6cc7cc(NC(=O)c8cnn9ccc(N%10CCOCC%10)nc89)c(C(F)F)cc7n6)CC5)C4)cc3C2=O)C(=O)N1 (stereo not drawn)    1 to 5 nM
CC(C)Oc1cc2c(cc1NC(=O)c1cnn3cccnc13)CN(C1CCN(CC3CN(c4ccc5c(c4)CN(C4CCC(=O)NC4=O)C5=O)C3)CC1)C2=O (stereo not drawn)    < 1 nM
COc1cc2nn(C3CCN(CC4(F)CN(c5ccc6c(c5)C(=O)N(C5CCC(=O)NC5=O)C6=O)C4)CC3)cc2cc1NC(=O)c1cnn2cccnc12 (stereo not drawn)    1 to 5 nM
CC(C)Oc1cc2nn([C@H]3CC[C@H](N(C)C4CCN(c5ccc6c(c5)C(=O)N(C5CCC(=O)NC5=O)C6=O)CC4)CC3)cc2cc1NC(=O)c1cnn2cccnc12 (stereo partly drawn)    < 1 nM

Now examine the next entry.
Give its DC50 value. Item: CNc1ccn2ncc(C(=O)Nc3cc4cn(C5CCN(CC6(F)CN(c7ccc8c(c7)C(=O)N(C7CCC(=O)NC7=O)C8=O)C6)CC5)nc4cc3OCC3CC3)c2n1 (stereo not drawn)
1 to 5 nM

---

Biological target: UniProt:Q9NWZ3
Assay: IRAK-4 ELISA, PBMC degradation
Format: cell-based
Set-up: endogenous in cells; host or cells: PBMC
Conditions: treated overnight
Description: Reagents: Human IRAK-4 Matched Antibody Pair Kit (Abcam ab218182) and ELISA Accessory Pack (Abcam ab210905). Cell Treatment and Lysis: 1. OCI-Ly10: 200,000 cells are seeded at 1×10^6/ml in 96-well U-bottom plates 200 ul per well, treated with compound the same day. Incubate overnight. 2. PBMC: 800,000 cells are seeded at 2×10^6/ml in 96-well U-bottom deep-well plates, 400 ul per well, treated with compound the same day. […] Cell lysate is collected and analyzed by ELISA for IRAK-4 levels.
Let's look at some compounds and their measured DC50.

Example results:
CC(C)Oc1cc2c(cc1NC(=O)c1cnn3cccnc13)CN(C1CCN(CC3(F)CN(c4cc(F)c5c(c4)C(=O)N(C4CCC(=O)NC4=O)C5)C3)CC1)C2=O (stereo not shown)    1 to 5 nM
O=C1CCC(N2Cc3cc(N4CCC(CN5CCC(N6Cc7cc(NC(=O)c8cnn9cccnc89)c(N8CCN(CC(F)F)CC8)cc7C6=O)CC5)CC4)ccc3C2=O)C(=O)N1 (stereo not shown)    < 1 nM
O=C1CCC(N2C(=O)c3ccc(N4CC(F)(CN5CCC(n6cc7cc(NC(=O)c8cnn9ccc(N%10CCOCC%10)nc89)c(OCC8CC8)cc7n6)CC5)C4)cc3C2=O)C(=O)N1 (stereo not shown)    5 to 10 nM

Return DC50 measured with UniProt:Q9NWZ3 given this compound: COc1cc2nn(C3CCN(CC4CCN(c5ccc6c(c5)CN(C5CCC(=O)NC5=O)C6=O)CC4)CC3)cc2cc1NC(=O)c1cnn2cccnc12 (stereo not shown)
1 to 5 nM

---

Target: IRAK-4 (Homo sapiens)
Sequence (Q9NWZ3 1-460): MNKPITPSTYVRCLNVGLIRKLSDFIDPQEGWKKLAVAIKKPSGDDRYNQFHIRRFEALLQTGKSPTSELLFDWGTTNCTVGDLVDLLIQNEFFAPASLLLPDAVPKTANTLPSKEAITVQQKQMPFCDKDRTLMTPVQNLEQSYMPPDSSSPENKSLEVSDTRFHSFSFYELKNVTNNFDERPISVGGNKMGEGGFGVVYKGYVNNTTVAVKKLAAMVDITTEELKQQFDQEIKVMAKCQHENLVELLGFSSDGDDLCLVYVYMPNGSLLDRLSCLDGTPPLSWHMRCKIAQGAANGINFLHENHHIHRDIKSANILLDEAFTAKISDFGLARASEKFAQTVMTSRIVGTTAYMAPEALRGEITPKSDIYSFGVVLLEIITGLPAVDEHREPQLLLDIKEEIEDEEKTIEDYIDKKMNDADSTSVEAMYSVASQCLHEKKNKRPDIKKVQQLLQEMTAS
Experiment: IRAK-4 ELISA, PBMC degradation
Assay type: cell-based
Parameters: endogenous in cells; host or cells: PBMC
Conditions: treated overnight
measurement.name: DC50

Example results:
O=C1CCC(N2C(=O)c3ccc(N4CC(F)(CN5CCC(n6cc7cc(NC(=O)c8cnn9cccnc89)c(OCC8CC8)cc7n6)CC5)C4)cc3C2=O)C(=O)N1 (stereo not shown)    1 to 5 nM
O=C1CCC(N2C(=O)c3ccc(N4CC(F)(CN5CCC(n6cc7cc(NC(=O)c8cnn9cccnc89)c(OC8CC8)cc7n6)CC5)C4)cc3C2=O)C(=O)N1 (stereo not shown)    1 to 5 nM
C[C@@H](Oc1cc2nn(C3CCN(CC4(F)CN(c5ccc6c(c5)C(=O)N(C5CCC(=O)NC5=O)C6=O)C4)CC3)cc2cc1NC(=O)c1cnn2cccnc12)C1CC1 (stereo partly shown)    1 to 5 nM

Now examine the next entry.
Give its DC50 value. Item: CC(C)Oc1cc2nn(C3CCN(CC4(F)CN(c5cccc6c5n(C)c(=O)n6C5CCC(=O)NC5=O)C4)CC3)cc2cc1NC(=O)c1cnn2cccnc12 (stereo not shown)
< 1 nM

---

target: IRAK-4 (Homo sapiens, UniProt Q9NWZ3); test: IRAK-4 ELISA, PBMC degradation; type: cell-based; parameters: endogenous in cells; host or cells: PBMC; settings: treated overnight
Let's look at some compounds and their measured Dmax.

CN1CC(Oc2cc3nn(C4CCN(CC5CN(c6ccc7c(c6)C(=O)N(C6CCC(=O)NC6=O)C7=O)C5)CC4)cc3cc2NC(=O)c2cnn3cccnc23)C1 (stereo not shown) [Example 151]    70 to 80%
CC(C)Oc1cc2c(cc1NC(=O)c1cnn3cccnc13)CN([C@H]1CC[C@@H](N3CC4(CN(c5ccc6c(c5)C(=O)N(C5CCC(=O)NC5=O)C6=O)C4)C3)CC1)C2=O (stereo partly shown) [Example 69]    ≥ 90%
CC(C)Oc1cc2c(cc1NC(=O)c1cnn3cccnc13)CN(C[C@@H](F)C1CCN(CC3CCN(c4ccc5c(c4)CN(C4CCC(=O)NC4=O)C5=O)CC3)CC1)C2=O (stereo partly shown) [Example 20]    ≥ 90%

Now examine the next entry.
Give its Dmax value. Item: Cc1cnc2c(C(=O)Nc3cc4c(cc3OC(C)C)C(=O)N(C3CCN(CCc5ccc6c(c5)CN(C5CCC(=O)NC5=O)C6=O)CC3)C4)cnn2c1 (stereo not shown) [Example 9]
80 to 90%

---

molecular target: IRAK-4 (Homo sapiens); assay: IRAK-4 ELISA, PBMC degradation; type: cell-based; parameters: endogenous in cells; host or cells: PBMC; conditions: treated overnight
Let's look at some compounds and their measured DC50.

O=C1CCC(NC(=O)c2ccc(N3CC(F)(CN4CCC(n5cc6cc(NC(=O)c7cnn8cccnc78)c(OCC7CC7)cc6n5)CC4)C3)cc2F)C(=O)N1 (stereo not shown) [Example 291]    1 to 5 nM
CC(C)Oc1cc2nn(C3CCN(CC4(F)CN(c5ccc6c(n5)C(=O)N(C5CCC(=O)NC5=O)C6=O)C4)CC3)cc2cc1NC(=O)c1cnn2cccnc12 (stereo not shown) [Example 411]    5 to 10 nM

Now examine the next entry.
Give its DC50 value. Item: COc1cc2nn([C@H]3CC[C@H](N(C)CC#Cc4ccc5c(c4)C(=O)N(C4CCC(=O)NC4=O)C5=O)CC3)cc2cc1NC(=O)c1cnn2cccnc12 (stereo partly shown) [Example 338]
< 1 nM

---

biological target: IRAK-4 (Homo sapiens); experiment: IRAK-4 ELISA, OCI-Ly10 degradation; type: cell-based; design: endogenous in cells; conditions: OCI-Ly10, OCI-Ly10 cells, treated overnight
Let's look at some molecules and their measured Dmax.

Example results:
CC(C)Oc1cc2c(cc1NC(=O)c1cnn3cccnc13)CN(C1CCN(C(C)(C)C3CCN(c4ccc5c(c4)C(=O)N(C4CCC(=O)NC4=O)C5=O)CC3)CC1)C2=O (stereo not shown) [Example 82]    ≥ 90%
O=C1CCC(N2Cc3cc(OCCN4CCC(n5cc6cc(NC(=O)c7cnn8cccnc78)c(OCC7CC7)cc6n5)CC4)ccc3C2=O)C(=O)N1 (stereo not shown) [Example 122]    < 70%
CC(C)Oc1cc2c(cc1NC(=O)c1cnn3cccnc13)CN(C1CCN(CCc3ccc4c(c3)CN(C3CCC(=O)NC3=O)C4=O)CC1)C2=O (stereo not shown) [Example 8]    ≥ 90%

Now examine the next entry.
Give its Dmax value. Item: O=C1CCC(N2Cc3cc(N4CCC(CN5CCC(n6cc7cc(NC(=O)c8cnn9cccnc89)c(C8CC8)cc7n6)CC5)CC4)ccc3C2=O)C(=O)N1 (stereo not shown) [Example 135]
80 to 90%
